Provenance of the data: patent US9822147B2

molecular target: NPR-B (Homo sapiens, UniProt P20594); construct: a functional assay using endogenously NPR-B expressing GTM-3 cells; endogenous in cells; host or cells: GTM-3 (human glaucoma trabecular meshwork cells); assay: NPR-B induced production of cyclic GMP in human glaucoma trabecular meshwork cells (GTM-3); assay type: cell-based; conditions: group by EC50 and Emax (CNP = 100%); Table 4; read-out: Activity (group), NPR-B activation assayed with GTM-3 cells
Sequence (P20594 23-1047): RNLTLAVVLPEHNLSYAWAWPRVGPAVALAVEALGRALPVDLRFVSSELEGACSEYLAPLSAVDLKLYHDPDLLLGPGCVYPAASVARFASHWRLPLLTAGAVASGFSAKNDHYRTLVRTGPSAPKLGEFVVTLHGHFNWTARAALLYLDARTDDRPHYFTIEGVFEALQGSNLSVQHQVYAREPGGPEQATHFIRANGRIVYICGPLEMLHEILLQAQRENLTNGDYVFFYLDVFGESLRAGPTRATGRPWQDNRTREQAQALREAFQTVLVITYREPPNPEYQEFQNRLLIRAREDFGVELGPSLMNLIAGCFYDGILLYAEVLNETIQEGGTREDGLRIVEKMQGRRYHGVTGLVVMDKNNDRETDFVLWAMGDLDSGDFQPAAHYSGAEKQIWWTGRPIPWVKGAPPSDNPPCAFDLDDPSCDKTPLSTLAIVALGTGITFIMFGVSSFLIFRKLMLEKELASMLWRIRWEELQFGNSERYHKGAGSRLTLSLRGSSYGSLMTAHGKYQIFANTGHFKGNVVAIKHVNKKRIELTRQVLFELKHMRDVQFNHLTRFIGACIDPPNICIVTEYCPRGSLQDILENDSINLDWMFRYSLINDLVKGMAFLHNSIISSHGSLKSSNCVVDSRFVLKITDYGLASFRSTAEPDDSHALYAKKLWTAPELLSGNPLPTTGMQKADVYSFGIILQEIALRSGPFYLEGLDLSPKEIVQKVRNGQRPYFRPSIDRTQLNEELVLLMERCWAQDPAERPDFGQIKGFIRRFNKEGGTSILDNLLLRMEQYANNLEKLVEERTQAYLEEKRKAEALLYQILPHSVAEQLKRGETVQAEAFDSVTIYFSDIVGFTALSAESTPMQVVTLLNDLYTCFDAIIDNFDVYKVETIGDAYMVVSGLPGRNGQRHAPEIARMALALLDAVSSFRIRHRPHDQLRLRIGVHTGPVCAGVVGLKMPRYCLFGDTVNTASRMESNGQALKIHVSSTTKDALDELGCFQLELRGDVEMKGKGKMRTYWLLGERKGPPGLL
Numbered stars: 1 amine (or outer) side, 2 acyl side, 3 side chain; on linkers, the order of the positions; unused ones are H or OH. Square brackets hold non-standard residues; d marks the D form. Peptide text beside a SMILES is read from it. * marks the point of attachment. Pro(4R-NH2) = N[C@H]1CN[C@H](C(=O)O)C1; dLys(Me2) = CN(C)CCCC[C@@H](N)C(=O)O; X2 = O=C([C@H]1CCCN([*:1])C1)[*:2]; Hyp = O=C(O)[C@@H]1C[C@@H](O)CN1; NHcycloheptyl = C1CCCC(N*)CC1; NMeL = CN[C@@H](CC(C)C)C(=O)O; Ac6c = NC1(C(=O)O)CCCCC1; Octanoyl = CCCCCCCC(=O)*
// values below are reported EC50
reported metric: EC50

compound: CCCCCCCC(=O)N[C@H](C)C(=O)N[C@@H](Cc1ccccc1)C(=O)NC1(C(=O)N[C@@H](CC(C)C)C(=O)N2C[C@H](N)C[C@H]2C(=O)N(C)[C@@H](CC(C)C)C(=O)N[C@@H](CC(=O)O)C(=O)N[C@@H](CCCNC(=N)N)C(=O)N[C@H](C(N)=O)[C@@H](C)CC)CCCCC1 [JAL-1454] (Octanoyl-[dA]F[Ac6c]L[Pro(4R-NH2)][NMeL]DRI-NH2)
reported metric: EC50
reported value: < 1 µM
//
compound: CCCCCCCC(=O)N1CCC[C@H](C(=O)N[C@@H](Cc2ccccc2)C(=O)N[C@H](CC(C)C)C(=O)N[C@@H](CCCC)C(=O)N2C[C@H](O)C[C@H]2C(=O)N(C)[C@@H](CC(C)C)C(=O)N[C@@H](CC(=O)O)C(=O)N[C@@H](CCCNC(=N)N)C(=O)N[C@H](C(N)=O)[C@@H](C)CC)C1 [JAL-1624] (HELM PEPTIDE1{[CCCCCCCC(=O)[*:2]].[O=C([C@H]1CCCN([*:1])C1)[*:2]].F.[dL].[Nle].[Hyp].[meL].D.R.I.[am]}$$$$V2.0)
reported metric: EC50
reported value: < 1 µM
//
compound: CCCCCCCC(=O)N1CCC[C@H](C(=O)N[C@@H](Cc2ccccc2)C(=O)N[C@H](CCCCN(C)C)C(=O)N[C@@H](CC(C)C)C(=O)N2C[C@H](O)C[C@H]2C(=O)N(C)[C@@H](CC(C)C)C(=O)N[C@@H](CC(=O)O)C(=O)N[C@@H](CCCNC(=N)N)C(=O)NC2CCCCCC2)C1 [JAL-1777] (Octanoyl-[X2]F[dLys(Me2)]L[Hyp][NMeL]DR-NHcycloheptyl)
reported metric: EC50
reported value: < 1 µM
